- System: T1, human EphA3 (Homo sapiens, UniProt P29320)
- T1 construct: a protein of the extracellular region of each human Eph receptor fused with the SEAP protein and the His tag; made in house; host or cells: Expi293F cells (culture supernatant)
- T1 sequence (P29320 21-541 limits assumed): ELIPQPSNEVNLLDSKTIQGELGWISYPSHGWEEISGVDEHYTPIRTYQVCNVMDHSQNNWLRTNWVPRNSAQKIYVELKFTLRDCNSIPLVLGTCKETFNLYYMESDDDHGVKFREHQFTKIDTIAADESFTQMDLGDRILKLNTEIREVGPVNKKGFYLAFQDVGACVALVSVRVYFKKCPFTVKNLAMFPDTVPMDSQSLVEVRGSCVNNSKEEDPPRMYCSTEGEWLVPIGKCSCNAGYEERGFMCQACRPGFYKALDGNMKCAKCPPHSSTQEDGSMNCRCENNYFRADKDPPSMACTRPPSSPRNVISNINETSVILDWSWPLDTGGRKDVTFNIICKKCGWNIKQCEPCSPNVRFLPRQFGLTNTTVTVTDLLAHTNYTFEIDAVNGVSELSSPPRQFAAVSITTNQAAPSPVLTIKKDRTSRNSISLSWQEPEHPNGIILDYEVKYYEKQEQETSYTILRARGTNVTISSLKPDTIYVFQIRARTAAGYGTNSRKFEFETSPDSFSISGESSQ
- Assay remarks: Selectivity ELISA of humanized antibodies for human Eph receptor
- Assay type: binding
- Test conditions: coated protein 1 nM
Assay metric: hEphA3-SEAP-: absorbance at 450 nm, percentage with respect to hEphA4-SEAP-His as 100% (%)
Give bare numbers, in %.

Qu. // hEphA3-SEAP-: absorbance at 450 nm, percentage with respect to hEphA4-SEAP-His as 100% lookup, key: 140 (antibody, V domains shown, synthetic humanized antibody heavy chain variable region sequence; synthetic humanized antibody light chain variable region sequence) VH: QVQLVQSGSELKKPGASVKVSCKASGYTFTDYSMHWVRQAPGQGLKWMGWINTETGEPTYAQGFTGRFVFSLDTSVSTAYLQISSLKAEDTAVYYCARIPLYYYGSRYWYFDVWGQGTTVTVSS VL: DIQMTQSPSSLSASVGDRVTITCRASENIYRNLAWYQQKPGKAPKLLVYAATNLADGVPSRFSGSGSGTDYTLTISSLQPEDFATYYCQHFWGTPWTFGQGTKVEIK
Ans. 5.5
